Tested on: SK-MES-1
assay.overview: relative viability (nuclei count vs DMSO), 5 days (fraction); higher = more cells survive
stated.conditions: first compound 0.0002 µM
parameter: relative viability
Could you respond with only the numeric value?

Input: For the compound CC(=O)O[C@@]12CO[C@@H]1C[C@H](O)[C@@]1(C)C(=O)[C@H](O)C3=C(C)[C@@H](OC(=O)[C@H](O)[C@@H](NC(=O)OC(C)(C)C)c4ccccc4)C[C@@](O)([C@@H](OC(=O)c4ccccc4)[C@H]21)C3(C)C [Docetaxel] + C[C@@H](Oc1cc(-c2cnn(C3CCNCC3)c2)cnc1N)c1c(Cl)ccc(F)c1Cl [Crizotinib] (partner 1 µM) , what relative viability is on record?
Output: 0.937

Input: What does the data say about its relative viability? Entry: CC(=O)O[C@@]12CO[C@@H]1C[C@H](O)[C@@]1(C)C(=O)[C@H](O)C3=C(C)[C@@H](OC(=O)[C@H](O)[C@@H](NC(=O)OC(C)(C)C)c4ccccc4)C[C@@](O)([C@@H](OC(=O)c4ccccc4)[C@H]21)C3(C)C [Docetaxel] + Cc1nc(NC(=O)N2CCC[C@H]2C(N)=O)sc1-c1ccnc(C(C)(C)C(F)(F)F)c1 [Alpelisib] (partner 2 µM)
Output: 0.932

Input: Field request: relative viability | item: CC(=O)O[C@@]12CO[C@@H]1C[C@H](O)[C@@]1(C)C(=O)[C@H](O)C3=C(C)[C@@H](OC(=O)[C@H](O)[C@@H](NC(=O)OC(C)(C)C)c4ccccc4)C[C@@](O)([C@@H](OC(=O)c4ccccc4)[C@H]21)C3(C)C [Docetaxel] + COc1cc2c(Oc3ccc(NC(=O)C4(C(=O)Nc5ccc(F)cc5)CC4)cc3F)ccnc2cc1OCCCN1CCOCC1 [Foretinib] (partner 0.25 µM)
Output: 0.84

Input: Reported relative viability for CC(=O)O[C@@]12CO[C@@H]1C[C@H](O)[C@@]1(C)C(=O)[C@H](O)C3=C(C)[C@@H](OC(=O)[C@H](O)[C@@H](NC(=O)OC(C)(C)C)c4ccccc4)C[C@@](O)([C@@H](OC(=O)c4ccccc4)[C@H]21)C3(C)C [Docetaxel] + Nc1nc2[nH]cc(CCc3ccc(C(=O)N[C@@H](CCC(=O)O)C(=O)O)cc3)c2c(=O)[nH]1 [Pemetrexed] (partner 0.2 µM) : what is it?
Output: 0.971

Input: Item under review: CC(=O)O[C@@]12CO[C@@H]1C[C@H](O)[C@@]1(C)C(=O)[C@H](O)C3=C(C)[C@@H](OC(=O)[C@H](O)[C@@H](NC(=O)OC(C)(C)C)c4ccccc4)C[C@@](O)([C@@H](OC(=O)c4ccccc4)[C@H]21)C3(C)C [Docetaxel] + CC(=O)c1c(C)c2cnc(Nc3ccc(N4CCNCC4)cn3)nc2n(C2CCCC2)c1=O [Palbociclib] (partner 0.5 µM) . Reported relative viability?
Output: 0.401

Input: Look at this compound and give its reported relative viability. CC(=O)O[C@@]12CO[C@@H]1C[C@H](O)[C@@]1(C)C(=O)[C@H](O)C3=C(C)[C@@H](OC(=O)[C@H](O)[C@@H](NC(=O)OC(C)(C)C)c4ccccc4)C[C@@](O)([C@@H](OC(=O)c4ccccc4)[C@H]21)C3(C)C [Docetaxel] + CC1(C)CCC(c2ccc(Cl)cc2)=C(CN2CCN(c3ccc(C(=O)NS(=O)(=O)c4ccc(N[C@H](CCN5CCOCC5)CSc5ccccc5)c(S(=O)(=O)C(F)(F)F)c4)cc3)CC2)C1 [Navitoclax] (partner 0.5 µM)
Output: 1.19

Input: Which measured relative viability value corresponds to CC(=O)O[C@@]12CO[C@@H]1C[C@H](O)[C@@]1(C)C(=O)[C@H](O)C3=C(C)[C@@H](OC(=O)[C@H](O)[C@@H](NC(=O)OC(C)(C)C)c4ccccc4)C[C@@](O)([C@@H](OC(=O)c4ccccc4)[C@H]21)C3(C)C [Docetaxel] + C[C@]1(O)C[C@@H](c2nc(-c3ccc4ccc(-c5ccccc5)nc4c3)c3c(N)nccn32)C1 [Linsitinib] (partner 1 µM) ?
Output: 1.05
